src = patent US20060073152A1

- system.name: T1, rat serum albumin (rat, UniProt P02770 25-608)
- T1 construct: also called Rat SA; RSA
- assay.protocol: phage binding
No end group written: not given here.
metric.name: binding result

1. LWAMEDICLPKWGCLWEDDF (on phage) [RB-B4]	binds
2. QRHPEDICLPRWGCLWGDDD (on phage) [RB-H1]	binds
3. LRLMDNICLPRWGCLWDDGF (not fully specified (bridges); cysteine pairing not given here, on phage) [RB-B7]	binds
